test: The drug is tested on Z-009 corresponding to pig gut metagenome with ENA study accession number: PRJEB37062 and ENA sample accession number: ERS12561809 for biotransformation under anaerobic condition. The drug concentrations were measured over 9 timepoints collected between 0 and 24 hours of incubation by liquid-chromatography-coupled mass spectrometry (LC–MS); conditions: 2 µM; note: call rule not given here
attribute-measured: Bacterial Biotransformation

Previously resolved entries follow.
{"columns": ["compound", "attribute-measured", "test-value"],
 "data": [
  ["C[C@H]1C[C@H]2[C@@H]3CCC4=CC(=O)C=C[C@]4(C)[C@@]3(F)[C@@H](O)C[C@]2(C)[C@@]1(O)C(=O)CO [BETAMETHASONE]", "Bacterial Biotransformation", "Compound metabolized"],
  ["CC(C)(C)NC(=O)[C@H]1CC[C@H]2[C@@H]3CC[C@H]4NC(=O)C=C[C@]4(C)[C@H]3CC[C@]12C [FINASTERIDE]", "Bacterial Biotransformation", "Compound metabolized"],
  ["CC(=O)Nc1ccc(OC(C)=O)cc1 [DIACETAMATE]", "Bacterial Biotransformation", "Compound metabolized"],
  ["C#C[C@]1(OC(C)=O)CC[C@H]2[C@@H]3CCC4=CC(=O)CC[C@@H]4[C@H]3CC[C@@]21C [NORETHINDRONE ACETATE]", "Bacterial Biotransformation", "Compound metabolized"],
  ["CCN(CC)CCNC(=O)c1cc(S(C)(=O)=O)ccc1OC [TIAPRIDE]", "Bacterial Biotransformation", "Compound NOT metabolized"]
]}

Challenge: Which Bacterial Biotransformation value is on record for COC1=C(OC)C(=O)C(CCCCCCCCCCO)=C(C)C1=O [IDEBENONE] ?
Response given: Compound metabolized

Challenge: Which Bacterial Biotransformation value is on record for OC(c1cc(C(F)(F)F)nc2c(C(F)(F)F)cccc12)C1CCCCN1 (stereo not drawn) [MEFLOQUINE] ?
Response given: Compound metabolized

Challenge: Which Bacterial Biotransformation value is on record for Cc1cc2c(s1)Nc1ccccc1N=C2N1CCN(C)CC1 [OLANZAPINE] ?
Response given: Compound NOT metabolized

Challenge: Which Bacterial Biotransformation value is on record for COC(=O)C(c1ccccc1)C1CCCCN1 (stereo not drawn) [METHYLPHENIDATE] ?
Response given: Compound metabolized

Challenge: Which Bacterial Biotransformation value is on record for COc1ccnc(C[S+]([O-])c2nc3ccc(OC(F)F)cc3[nH]2)c1OC (stereo not drawn) [PANTOPRAZOLE] ?
Response given: Compound NOT metabolized

Challenge: Which Bacterial Biotransformation value is on record for CN(C/C=C/C#CC(C)(C)C)Cc1cccc2ccccc12 [TERBINAFINE] ?
Response given: Compound metabolized
